test system: MALME-3M melanoma; assay: NCI-60 one-dose screen, 48 h (100 = growth as untreated, 0 = no growth, -100 = all killed); details: 10 µM unless noted
This is part of a sample that, as a whole, favours compounds with a hit. Of some 83,000 tested, about 20% had one in any assay.
Recorded growth, one value per entry.
Hi! Could you send only the number? It should be in %, unit omitted.

For orientation, consider the following solved cases.
{"compound": "COc1ccc(C(O)c2cc3c(N)c(C(=O)Nc4cccc5ccccc45)sc3nc2C)cc1 (configuration not stated)", "result.units": "%", "result.value": 27.7}
{"compound": "Cc1ccc2c(c1)=C/C(=C\\c1cc(-c3ccccc3)[nH]c1O)C(=O)N=2", "result.units": "%", "result.value": 54.5}
{"compound": "CN(C)c1ccc(CNCCO)cc1", "result.units": "%", "result.value": 103}

For the compound Cc1cccc(N2C(=O)/C(=C/C(Cl)=C/c3ccc([N+](=O)[O-])cc3)SC2=S)c1C , what growth is on record?
-8.54

Need growth, item COc1ccc(CN2C(=O)OC(C)(COC(C)=O)C2=O)cc1 (configuration not stated)
102

Sample CC(=O)O[C@H]1CC[C@]2(C)[C@H]3CC=C4[C@@H]5CC(C)(C)CC[C@]5(C(=O)N5CCN(CCC#N)CC5)CC[C@@]4(C)[C@]3(C)CC[C@H]2C1(C)C — what was its growth?
26

Look up growth for this compound: c1ccc2cc(Cn3cc(CSc4nc5ccccc5s4)nn3)ccc2c1
97.7

Quick one: growth of COc1ccc(N=C2NN=C(c3c[nH]c4ccccc34)CS2)cc1OC ?
69.3

// lookup growth for CC(C)CCC[C@@H](C)[C@H]1CC[C@H]2[C@@H]3CC=C4c5sc(Nc6cc(C(F)(F)F)cc(C(F)(F)F)c6)nc5CC[C@]4(C)[C@H]3CC[C@]12C
94.8

Item under review: Cn1c(C#N)ccc1-c1ccc(F)c(NC(=O)c2ccc(F)cc2)c1 . Reported growth?
91.2

###

system: ACHN renal; test: NCI-60 one-dose screen, 48 h (100 = growth as untreated, 0 = no growth, -100 = all killed); settings: 10 µM unless noted
The panel holds about 83,000 compounds, 20% with a hit somewhere; the sample as a whole holds those more often.
Each entry below carries its reported growth.
# value in %; strip the unit string

Look over these answered cases.
{"molecule": "COC(=O)/C=C1/SC(=NCc2ccccc2)N(CCc2c[nH]c3ccccc23)C1=O", "measured.on": "ACHN renal", "growth [%]": 99.5}
{"molecule": "COC(=O)[C@]1(C)CCC[C@]2(C)[C@H]3C[C@@H]4[C@H]5[C@@H]6CC/C(=N\\OCC/C(N)=N/O)[C@H]5[C@@]3(CC[C@H]21)CC4(C(C)C)O6", "measured.on": "ACHN renal", "growth [%]": 68.4}

Kindly state the measured growth obtained for Cc1ccccc1N1CCN(C(=S)c2ccccc2)CC1 with ACHN renal.
106

###

test system: K-562 leukemia; experiment: NCI-60 one-dose screen, 48 h; settings: 10 µM unless noted
This is part of a sample that, as a whole, favours compounds with a hit. Of some 83,000 tested, about 20% had one in any assay. The source made the active and inactive calls. How the source made its calls: active means growth percent below 10; inactive means the rest.
Choose the fitting class; nothing outside active, inactive is accepted.

Below, 5 compounds whose answers are already recorded.
{"compound": "COC12C=C/C(=C(/C(=O)OCCSc3ccnn3C)C(=O)CCCCCCCCC3(OC)C=C/C(=C(/C(=O)OCCSc4ccnn4C)C(=O)CCCCCCCC1)O3)O2", "qualitative.label": "active"}
{"compound": "Clc1ccc(-c2cc(-c3ccccc3)nc(N3CCN(CCCNc4ccnc5cc(Cl)ccc45)CC3)n2)cc1", "qualitative.label": "active"}
{"compound": "COc1ccc(Oc2ccc(/C=C/C(=O)c3ccc(OC)c(OC)c3)cc2)cc1", "qualitative.label": "inactive"}
{"compound": "COC(=O)[C@@]1(C)CC[C@]2(C)CC[C@]3(C)C4=CC=C5C(=CC(=O)C(O)=C5C)[C@]4(C)[C@@H](O)C[C@@]3(C)[C@@H]2C1", "qualitative.label": "active"}
{"compound": "O=C(/C=C/c1ccccc1)c1ccc(-n2cc(CN3CCN(c4cc5c(cc4F)c(=O)c(C(=O)O)cn5C4CC4)CC3)nn2)cc1", "qualitative.label": "inactive"}

Status in this test for CN(C)CCC(=O)C1CC1 ?
inactive

How did this test come out for Cc1ccccc1N1CCN(C(=S)c2ccccc2)CC1 ?
inactive

Call for entry C#CCOc1cccc(Nc2ncnc3cc(NC(=O)CCl)ccc23)c1 :
active

What is the recorded call for this compound in the test? Nc1[nH]nc2nc(-c3ccccc3)n3c4ccccc4nc3c12
inactive

Which outcome was entered for the compound Nc1ccc(-c2ccncc2)cc1NC(=O)N1CCCC1 in this test?
inactive

What classification did COc1cc2c(cc1-c1c(C)noc1C)ncc1nc(CN3CCOCC3)n([C@H](C)COC(F)F)c12 end up with in this test?
inactive

Can you look up the reported call for Cc1ccc(NC(=O)c2cc3ccccc3cc2O)c(C)c1 for me?
inactive

Short answer needed: outcome of this test for COc1ccc(C/C(C)=C(\c2ccc(O)cc2)c2ccc(OCCN3CCCCC3)cc2)cc1 ?
inactive

# lookup: test call for CN1CCN(c2ccc(NC3=CC(=O)c4ncncc4C3=O)cc2)CC1
active

What is the recorded call for this compound in the test? CC1=Nc2cnc(Nc3ccc(N4CCCCC4)cc3)nc2Nc2ccccc21
inactive

Please let me know the test result on file for C#COc1cccc(Nc2ncnc3cc(NC(=O)[C@H](C)Cl)ccc23)c1 .
inactive

Recorded call for O=C(Nc1cccnc1Nc1ccc(Cl)cc1)c1cn(Cc2cccc(Oc3ccccc3)c2)nn1 ?
inactive

Please share the test call associated with CNC(=O)c1cc(Oc2ccc3c(c2)sc2nc(-c4ccc(NC(=O)[C@@H](NC(=O)OC)C(C)C)cc4)cn23)ccn1 .
inactive

Which outcome was entered for the compound CCCCCCCCn1ccc2cc(NC(=O)CN3CCN(c4cc(C)nc(Cl)n4)CC3)ccc21 in this test?
inactive

Answer briefly: the call reported for CCN(CC)CCOc1ccc(/C(=C(\C)Cc2ccc(OC)cc2)c2ccc(OC(=O)NCc3ccccc3)cc2)cc1 in this assay.
active

Answer briefly: the call reported for Nc1c(Cl)cc(/C=C2\C=Cc3ccccc32)cc1Cl in this assay.
inactive
